System: Staphylococcus aureus ATCC 25213
measuredAttribute: log10(MIC) (log10 of the value in µg/mL)

>>> measuredresult("COc1cc(NC(C)CCCNC(=O)NC(C(=O)NC(c2ccccc2)c2ccccc2)c2ccc(Cl)cc2)c2ncccc2c1 (centres unmarked) [Compound 5d]")
1.10
>>> measuredresult("COc1cc(NC(C)CCCNC(=O)NC(C(=O)N(C)C(c2ccccc2)c2ccccc2)c2ccccc2)c2ncccc2c1 (centres unmarked) [Compound 5b]")
1.78
>>> measuredresult("COc1cc(NC(C)CCCN)c2ncccc2c1 (centres unmarked) [PQ, reference compound]")
1.85
>>> measuredresult("COc1cc(NC(C)CCCNC(=O)NC(CC(C)C)C(=O)NC(c2ccccc2)c2ccccc2)c2ncccc2c1 (centres unmarked) [Compound 5a]")
0.81
>>> measuredresult("CN(C)[C@@H]1C(O)=C(C(N)=O)C(=O)[C@@]2(O)C(O)=C3C(=O)c4c(O)cccc4[C@@](C)(O)[C@H]3C[C@@H]12 [TC, tetracycline, reference compound]")
-0.80
